# measured target: T1, EsCas13d, nuclease-dead (Eubacterium siraeum, UniProt B0MS50, R295A;H300A;R849A;H854A)
# T1 sequence: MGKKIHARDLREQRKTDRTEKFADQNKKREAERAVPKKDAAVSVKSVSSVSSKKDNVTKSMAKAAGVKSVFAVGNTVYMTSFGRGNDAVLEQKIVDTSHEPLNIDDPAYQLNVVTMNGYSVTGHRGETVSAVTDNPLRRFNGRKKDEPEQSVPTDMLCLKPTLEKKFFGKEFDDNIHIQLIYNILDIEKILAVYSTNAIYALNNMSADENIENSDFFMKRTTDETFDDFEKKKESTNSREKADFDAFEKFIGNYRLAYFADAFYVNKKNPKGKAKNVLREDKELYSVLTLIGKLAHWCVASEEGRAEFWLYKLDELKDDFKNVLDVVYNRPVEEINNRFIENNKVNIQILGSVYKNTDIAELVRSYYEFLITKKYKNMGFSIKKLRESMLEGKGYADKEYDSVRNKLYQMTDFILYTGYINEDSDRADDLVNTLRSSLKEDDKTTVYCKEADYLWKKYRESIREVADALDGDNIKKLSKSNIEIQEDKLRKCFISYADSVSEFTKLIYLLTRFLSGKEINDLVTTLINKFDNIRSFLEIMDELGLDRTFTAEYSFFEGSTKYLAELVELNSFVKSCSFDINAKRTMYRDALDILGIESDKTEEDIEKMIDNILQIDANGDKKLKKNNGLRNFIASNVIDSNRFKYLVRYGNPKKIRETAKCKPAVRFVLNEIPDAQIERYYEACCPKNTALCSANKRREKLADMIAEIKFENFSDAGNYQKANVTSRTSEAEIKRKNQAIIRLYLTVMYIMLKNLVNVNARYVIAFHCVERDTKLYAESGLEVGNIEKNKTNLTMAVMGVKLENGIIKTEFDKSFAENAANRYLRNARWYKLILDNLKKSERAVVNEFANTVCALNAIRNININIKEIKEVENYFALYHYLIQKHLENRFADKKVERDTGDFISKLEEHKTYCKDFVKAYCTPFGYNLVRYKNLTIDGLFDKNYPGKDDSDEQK
# test summary: crRNA (strand 1, pre-loaded); Mg2+; 40 mM Tris-HCl pH 7.5, 150 mM NaCl, 6 mM MgCl2, 1 mM DTT, 0.1% Tween-20, 0.2 mg/ml BSA; 25 C; 10 min per concentration, then washed
# experimental setup: tags: His6-TwinStrep-SUMO cleaved; N-terminal SNAP kept (SNAP-Surface 488); label: 3' end held by stalled T7 RNA polymerase
Overview of recorded Kd for various binders
// units = nM; emit number, no label

Check out these entries, answers already filled in.
[[record]]
binder = "target 3 insU 3' of 22,insA 3' of 4 (mixed) RNA 1: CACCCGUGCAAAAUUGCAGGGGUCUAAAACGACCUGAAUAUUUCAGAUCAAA RNA 2: GGGAAUGGAUCCACAUCUACGAAUUCGUUUUUUGAUCUGAAAUAUUCAGAGUCUGCAGAUCGGAAGAGCACACGU"
result = 69.5

[[record]]
binder = "target 2 MT 5'PFS CAU 3'PFS CAU (mixed) RNA 1: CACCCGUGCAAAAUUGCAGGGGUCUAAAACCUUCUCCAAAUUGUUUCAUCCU RNA 2: GGGAAUGGAUCCACAUCUACGAAUUCCAUAGGAUGAAACAAUUUGGAGAAGCAUAGAUCGGAAGAGCACACGU"
result = 4.9

[[record]]
binder = "target 1 MT 5'PFS GUG 3'PFS UGC (mixed) RNA 1: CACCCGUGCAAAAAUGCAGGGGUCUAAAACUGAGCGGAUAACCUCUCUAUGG RNA 2: GGGAAUGGAUCCACAUCUACGAAUUCGUGCCAUAGAGAGGUUAUCCGCUCAUGCAGAUCGGAAGAGCACACGU"
result = 9.4


Given the entry target 1 insU 3' of 17,insU 3' of 12 (mixed) RNA 1: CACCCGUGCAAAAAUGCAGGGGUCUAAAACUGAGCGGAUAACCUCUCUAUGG RNA 2: GGGAAUGGAUCCACAUCUACGAAUUCGUACCAUAGUAGAGGUUUAUCCGCUCACCGAGAUCGGAAGAGCACACGU , report its measured Kd.
16.4

// returns reported Kd for input target 1 insU 3' of 4,insC 3' of 3 (mixed) RNA 1: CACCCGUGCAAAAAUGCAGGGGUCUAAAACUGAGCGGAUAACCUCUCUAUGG RNA 2: GGGAAUGGAUCCACAUCUACGAAUUCGUACCAUAGAGAGGUUAUCCGCUUCCACCGAGAUCGGAAGAGCACACGU
76

Which measured Kd value corresponds to target 1 MT 5'PFS GUC 3'PFS CUG (mixed) RNA 1: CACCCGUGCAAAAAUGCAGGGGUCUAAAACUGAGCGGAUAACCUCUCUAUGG RNA 2: GGGAAUGGAUCCACAUCUACGAAUUCGUCCCAUAGAGAGGUUAUCCGCUCACUGAGAUCGGAAGAGCACACGU ?
12.8

Given target 1 U3C,G12U (mixed) RNA 1: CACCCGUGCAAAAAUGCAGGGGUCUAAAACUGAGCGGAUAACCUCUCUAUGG RNA 2: GGGAAUGGAUCCACAUCUACGAAUUCGUACCAUAGAGAGUUUAUCCGCCCACCGAGAUCGGAAGAGCACACGU , state its recorded Kd.
19.4
